# Assay Notes: protein stability index of a GFP-peptide fusion (GPS, HEK-293T) (PSI 1-6); higher = more stable;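 further: 24-mer peptide tiles fused after GFP, lentivirally expressed, FACS-sorted into six equal bins by GFP/DsRed ratio, decoded by Illumina sequencing, PSI is the read-weighted mean bin number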
# Test Conditions: treatment: DMSO; c terminus: a fixed tail appended
Recorded Endpoint: protein stability index
Answers are plain numbers.

# annotated cases, reported protein stability index shown
Primary Sequence: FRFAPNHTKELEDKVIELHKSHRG [EPB41L3]
protein stability index: 2.88
--
Primary Sequence: LRDDVLCARMLYNYGADTNTRNYE [ASB7]
protein stability index: 3.1
--
Primary Sequence: ALTGPVVDIVTGHARLSDIWAKTP [DHCR7]
protein stability index: 2.63
--
Primary Sequence: PGRDRVGREDEDGWETRGDRKARK [HES6]
protein stability index: 5.49
--
Primary Sequence: MQAQASIEGAPEVTMSSLFKHILR [SLC25A25]
protein stability index: 2.36

Give protein stability index for each of the items listed below.
1. TRGFLRSPSSDLDTDAEGDDFELL [RETREG3]
2. VLMKGQHLHLETFKAVLDGLDVLL [PRAME]
3. ATVPSNMMSVNGQAKTHTDSSEKE [ACBD3]
4. ACIVVLDRTSHRLHTANLGDSGFL [PPTC7]

1: 5.24; 2: 2.26; 3: 5.35; 4: 2.68

* * *

# Assay Notes: protein stability index of a GFP-peptide fusion (GPS, HEK-293T) (PSI 1-6); higher = more stable
# Test Conditions: treatment: MLN4924 1 uM, 8 h; c terminus: a fixed tail appended
Note to self: values exactly at 3 are Fulfilled. So protein stability index at or above 3 is Fulfilled, below is Not fulfilled.

Record excerpt, results attached:
Primary Sequence: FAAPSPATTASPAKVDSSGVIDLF [SNAP91]
Group: Fulfilled
--
Primary Sequence: HFPASPFWSVMFFLMLINLGLGSM [SLC6A17]
Group: Fulfilled
--
Primary Sequence: QNPKDCSKAKKLVCNINKGCGYGC [FUT8]
Group: Fulfilled
--
Primary Sequence: TLVGCWSDVVGRRSSLLACILLSA [MFSD9]
Group: Not fulfilled
--
Primary Sequence: IDHYVGIARDQTKSIVEKIQAKLP [RTN3]
Group: Fulfilled

# check: protein stability index of AGGDATENFEDVGHSTDAREMSKT [CYB5A] is greater than or equal to 3 Fulfilled

# check: protein stability index of KLVDAIVSGDTSKLMKILQPQDVD [RIPK4] is greater than or equal to 3 Not fulfilled

* * *

Assignment: determine reported protein stability index for the given sequences.
# Assay Notes: protein stability index of a GFP-peptide fusion (GPS, HEK-293T) (PSI 1-6); higher = more stable
# Test Conditions: treatment: MLN4924 1 uM, 8 h; c terminus: a fixed tail appended
Give bare numbers.

# annotated cases, reported protein stability index shown
Primary Sequence: INQEELRALEEVEMKLQKNFLTQR [C10orf62]
protein stability index: 3.83

Primary Sequence: KRTAQAIEPYITNFFNQVLMLGKT [PDS5B]
protein stability index: 2.29

Primary Sequence: DVDITLSSEAFHNYMNAAMVHINR [RTN3]
protein stability index: 2.32

Primary Sequence: PFGFQTVTSDVNKLSSFYSLKLIK [SERPINB5]
protein stability index: 2.31

Primary Sequence: RIIYQNKCMRNGPNALIASLALGD [EDNRA]
protein stability index: 2.26

Primary Sequence: ISNVCEEYIVKKLSRQEFLGMVGL [SLC35F2]
protein stability index: 2.35

Give protein stability index for each of the items listed below.
1. TVGFLDEAIQPYRDRLRSRLEALS [TRIM15]
2. DGGSSLASGSTQRQPPPPAPQHPQ [FBXO28]
3. CSIGFAVRYLNAYTGIVLLRCRKE [POP5]

[2.77, 5.18, 2.99]

Give protein stability index for each of the items listed below.
1. PAISITENVLHFKAQGHGAKGDNV [HACD3]
2. SNDFKSVLEVRTENLKQQRSRREQ [STX5]
3. MLTRRVLQLETVLEGVVSQIDAVG [PKD2L1]
4. PTMPQPIEKVSVSTQTKKLSASSP [ZMYND11]
5. RDSHGKGIPNAIISVEGINHDIRT [CPXM2]
6. GNYMEAKSVLIPVYGVSKETFLSF [RHOBTB3]
7. FATQTEELNKQVVSSSEQLQSYQA [KRT33B]

1: 4.57; 2: 4.92; 3: 2.46; 4: 5.24; 5: 4.17; 6: 2.31; 7: 4.64

Give protein stability index for each of the items listed below.
1. RFTGTMDAFVKIVRHEGTRTLWSG [SLC25A39]
2. NIPGNSTLITAVELERFVNLHSLA [FBXO33]
3. PAEQAFWCLVQICEKYLPGYYSEK [TBC1D10A]
4. AEHMKRQRHPRLRPQSAQSSFPPS [AUP1]

2.47
2.23
3.46
4.43

Give protein stability index for each of the items listed below.
1. FDDFVTNLIEKSASLDNGGCALTT [SOAT1]
2. LKELQAIAERLGCTLPQLAIAWCL [KCNAB2]
3. YECTVCKKRFTRRSHLIGHQRTHS [ZNF449]
4. QHAVQELTKAATSGVGIDGEVLSY [RHOBTB1]
5. EGATLLLRGLCANTVLRFLDLKGN [LRRC45]
6. VGRTEPELLVAHAYTRYLGDLSGG [HMOX1]
7. FYPVMLILFLVIGGMLNFMMHDQR [SOAT2]
8. LDGKKKGVEPSPSPIKPGDIKRGI [UFD1]

1. 3.62
2. 2.27
3. 5.05
4. 4.57
5. 2.98
6. 2.48
7. 2.95
8. 4.92

Give protein stability index for each of the items listed below.
1. LDFCDFTAEMARVLTDSNHVPLQR [FBXO33]
2. QGIFVEKYDPTIEDSYRKQVEVDA [RAP1B]
3. TAPRTLPSCLACNRQCLCSAESMV [SPRY1]
4. ATVPSNMMSVNGQAKTHTDSSEKE [ACBD3]
5. LPHGVNFQDAIFPDTQENRRMFSS [CCDC3]

[3.26, 4.44, 2.59, 5.45, 3.92]

Give protein stability index for each of the items listed below.
1. SWYPKANNQDFIPFTKKRVGVDRA [ZC2HC1C]
2. LRRKTPRHKQPTLLMVRASRRSGK [C6orf223]
3. GDLFNGRYHVIRKLGWGHFSTVWL [SRPK2]
4. QRGRVISLWERLEFVNGWYILLVT [MCOLN1]
5. VLCPECENPETDLHVNPKKQTIGN [EIF5]
6. QGLIRAGKVEAQHILASAPTDRNL [PYCR3]
7. FDCPSELQHTQELFPQWHLPIKIA [STEAP1]
8. EGVKRYEQEHAAIQDKLFQVAKRE [CHCHD6]

2.94
4.04
2.17
2.67
4.54
4.07
2.79
4.78

Give protein stability index for each of the items listed below.
1. LLPDQARGEVPWSPELGRPHDRSQ [ZNF263]
2. SPINSPARGTPSPKRMPSGRGGRD [FSD1]
3. VILLPYVSKVTGWCRDRLLGHREP [TMEM175]

1. 4.86
2. 5.04
3. 2.04
